# TARGET_SYSTEM: UniProt P35968
# Sequence (P35968 20-1356): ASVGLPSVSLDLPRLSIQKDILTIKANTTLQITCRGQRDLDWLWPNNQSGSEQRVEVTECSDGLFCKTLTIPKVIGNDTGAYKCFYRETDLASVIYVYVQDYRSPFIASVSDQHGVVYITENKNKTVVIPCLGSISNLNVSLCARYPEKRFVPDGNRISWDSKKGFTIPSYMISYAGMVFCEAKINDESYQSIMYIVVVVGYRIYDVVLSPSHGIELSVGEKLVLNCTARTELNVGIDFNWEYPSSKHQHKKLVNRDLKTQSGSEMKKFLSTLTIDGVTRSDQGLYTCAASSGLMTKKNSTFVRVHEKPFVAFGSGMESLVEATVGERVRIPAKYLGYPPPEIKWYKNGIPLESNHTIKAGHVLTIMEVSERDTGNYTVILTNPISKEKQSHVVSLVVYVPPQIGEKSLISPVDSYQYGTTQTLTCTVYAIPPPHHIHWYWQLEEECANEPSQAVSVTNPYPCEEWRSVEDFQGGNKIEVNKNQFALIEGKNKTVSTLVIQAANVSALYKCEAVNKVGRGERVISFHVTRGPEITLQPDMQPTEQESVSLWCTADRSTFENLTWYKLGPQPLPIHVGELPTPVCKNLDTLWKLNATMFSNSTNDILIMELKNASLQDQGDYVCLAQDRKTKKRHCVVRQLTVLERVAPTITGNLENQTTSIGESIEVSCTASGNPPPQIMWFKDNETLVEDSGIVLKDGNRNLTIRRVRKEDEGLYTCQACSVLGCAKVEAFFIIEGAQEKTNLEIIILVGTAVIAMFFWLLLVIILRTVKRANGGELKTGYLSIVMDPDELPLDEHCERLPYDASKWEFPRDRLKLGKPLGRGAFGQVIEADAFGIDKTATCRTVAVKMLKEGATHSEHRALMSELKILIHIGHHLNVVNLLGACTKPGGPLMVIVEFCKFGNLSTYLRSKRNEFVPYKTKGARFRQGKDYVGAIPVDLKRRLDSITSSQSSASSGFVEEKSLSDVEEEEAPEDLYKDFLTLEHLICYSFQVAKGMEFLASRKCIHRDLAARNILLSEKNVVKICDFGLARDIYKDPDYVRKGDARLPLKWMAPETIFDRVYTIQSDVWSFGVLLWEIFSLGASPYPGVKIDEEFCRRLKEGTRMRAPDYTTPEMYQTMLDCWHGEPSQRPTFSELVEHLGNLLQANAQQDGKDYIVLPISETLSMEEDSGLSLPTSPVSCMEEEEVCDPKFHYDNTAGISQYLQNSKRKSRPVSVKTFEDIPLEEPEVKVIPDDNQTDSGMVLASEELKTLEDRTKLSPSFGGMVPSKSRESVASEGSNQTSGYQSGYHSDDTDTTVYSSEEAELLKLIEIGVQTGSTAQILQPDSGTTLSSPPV
# PROTOCOL: VEGFR-2 kinase assay (Kinase-Glo Max luminescence)
QUANTITY_KIND: pIC50
Quick note: pIC50 values are minus log10 of concentrations in mol/L.

Q: Requested read-out: pIC50. Entry: COC(=O)COc1ccc(C=NNC(=O)Cn2c(-c3ccc(OC)cc3)nc3cc(Cl)c(Cl)cc32)cc1 [Compound 10h]
Result: 5.82

====

# Test system: 786-0
# PROTOCOL: NCI 60 single concentration growth inhibition
# Type: cell-based, human
# REPORTED_CONDITIONS: Homo sapiens, 786-0, Renal cancer, read-out: GI%
QUANTITY_KIND: inhibition at 10 µM (%)
Provide the reading as a plain figure in %.

Example cases with answers are listed next.
>  <MOLECULE>
COC(=O)COc1cccc(C=NNC(=O)Cn2c(-c3ccc(OC)cc3)nc3cc(Cl)c(Cl)cc32)c1 [Compound 10g]

>  <REPORTED_MEASUREMENT>
10

$$$$
>  <MOLECULE>
COC(=O)COc1ccc(C=NNC(=O)Cn2c(-c3ccc(OC)cc3)nc3cc(Cl)c(Cl)cc32)cc1OC [Compound 10p]

>  <REPORTED_MEASUREMENT>
162

$$$$
>  <MOLECULE>
COc1ccc(C=NNC(=O)Cn2c(-c3ccc(OC)cc3)nc3cc(Cl)c(Cl)cc32)cc1 [Compound 10d]

>  <REPORTED_MEASUREMENT>
29.1

$$$$
>  <MOLECULE>
COc1ccc(-c2nc3cc(Cl)c(Cl)cc3n2CC(=O)NN=Cc2cccc(O)c2)cc1 [Compound 10a]

>  <REPORTED_MEASUREMENT>
28.6

$$$$
>  <MOLECULE>
CCOC(=O)C(C)Oc1ccc(C=NNC(=O)Cn2c(-c3ccc(OC)cc3)nc3cc(Cl)c(Cl)cc32)cc1 (stereo not drawn) [Compound 10j]

>  <REPORTED_MEASUREMENT>
11.3

$$$$

Q: For the molecule COc1ccc(-c2nc3cc(Cl)c(Cl)cc3n2CC(=O)NN=Cc2ccc(OC)c(O)c2)cc1 [Compound 10k] , what inhibition at 10 µM is on record?
Result: 25.3

Q: Fill in the blank: the reported inhibition at 10 µM of COc1ccc(-c2nc3cc(Cl)c(Cl)cc3n2CC(=O)NN=Cc2cccc(OC)c2)cc1 [Compound 10c] is ____.
Result: 19.2

Q: Entry under review: COC(=O)COc1ccc(C=NNC(=O)Cn2c(-c3ccc(OC)cc3)nc3cc(Cl)c(Cl)cc32)cc1 [Compound 10h] . Reported inhibition at 10 µM?
Result: 112

====

The reader will find reported inhibition at 10 µM values listed item by item below.
# Test system: UACC-62
# PROTOCOL: NCI 60 single concentration growth inhibition
# Format: cell-based, human
# REPORTED_CONDITIONS: Homo sapiens, UACC-62, Melanoma, read-out: GI%
Write the number in % without appending the unit.

Some compounds with recorded inhibition at 10 µM:
>  <COMPOUND>
COC(=O)COc1cc(C=NNC(=O)Cn2c(-c3ccc(OC)cc3)nc3cc(Cl)c(Cl)cc32)ccc1OC [Compound 10o]

>  <UNIT_STRING>
%

>  <inhibition at 10 µM>
24.3

$$$$
>  <COMPOUND>
COc1ccc(-c2nc3cc(Cl)c(Cl)cc3n2CC(=O)NN=Cc2cccc(OC)c2)cc1 [Compound 10c]

>  <UNIT_STRING>
%

>  <inhibition at 10 µM>
37.2

$$$$

Read the next record carefully.
Q: Please report the recorded inhibition at 10 µM for COC(=O)COc1ccc(C=NNC(=O)Cn2c(-c3ccc(OC)cc3)nc3cc(Cl)c(Cl)cc32)cc1OC [Compound 10p] .
Result: 36.5

====

# Test system: UACC-257
# PROTOCOL: NCI 60 single concentration growth inhibition
# Assay type: cell-based, human
# REPORTED_CONDITIONS: Homo sapiens, UACC-257, Melanoma, read-out: GI%
QUANTITY_KIND: inhibition at 10 µM (%)
Your answer should be a plain number; it is taken to be in %.

>  <COMPOUND>
COc1ccc(-c2nc3cc(Cl)c(Cl)cc3n2CC(=O)NN=Cc2cccc(OC)c2)cc1 [Compound 10c]

>  <REPORTED_MEASUREMENT>
20.9

$$$$
>  <COMPOUND>
COc1ccc(C=NNC(=O)Cn2c(-c3ccc(OC)cc3)nc3cc(Cl)c(Cl)cc32)cc1 [Compound 10d]

>  <REPORTED_MEASUREMENT>
60.4

$$$$

Q: Entry COc1ccc(-c2nc3cc(Cl)c(Cl)cc3n2CC(=O)NN=Cc2ccc(O)cc2)cc1 [Compound 10b] , system UACC-257: what inhibition at 10 µM was measured?
Result: 23.9

Q: # get_value(readout= inhibition at 10 µM, system= UACC-257) for COC(=O)COc1ccc(C=NNC(=O)Cn2c(-c3ccc(OC)cc3)nc3cc(Cl)c(Cl)cc32)cc1OC [Compound 10p]
Result: 22.7

====

# Test system: SF-295
# PROTOCOL: NCI 60 single concentration growth inhibition
# Type: cell-based, human
# REPORTED_CONDITIONS: Homo sapiens, SF-295, CNS cancer, read-out: GI%
Documented inhibition at 10 µM across a set of compounds
// return numeric value only (unit: %, not printed)

>  <COMPOUND>
COc1ccc(-c2nc3cc(Cl)c(Cl)cc3n2CC(=O)NN=Cc2cccc(O)c2)cc1 [Compound 10a]

>  <inhibition at 10 µM, %>
67.8

$$$$

Q: Requested field: inhibition at 10 µM. Item: COc1ccc(-c2nc3cc(Cl)c(Cl)cc3n2CC(=O)NN=Cc2ccc(O)c(OC)c2)cc1 [Compound 10l]
Result: 38.1

Q: What value of measured inhibition at 10 µM is listed for CCOC(=O)C(C)Oc1ccc(C=NNC(=O)Cn2c(-c3ccc(OC)cc3)nc3cc(Cl)c(Cl)cc32)cc1 (stereo not shown) [Compound 10j] ?
Result: 21

Q: # get_value(readout='inhibition at 10 µM', item= COc1ccc(-c2nc3cc(Cl)c(Cl)cc3n2CC(=O)NN=Cc2ccc(O)cc2)cc1 [Compound 10b] )
Result: 34

Q: Entry under review: COc1ccc(-c2nc3cc(Cl)c(Cl)cc3n2CC(=O)NN=Cc2cccc(OC)c2)cc1 [Compound 10c] . Reported inhibition at 10 µM?
Result: 22.3

Q: Which inhibition at 10 µM is reported for this compound? COc1ccc(C=NNC(=O)Cn2c(-c3ccc(OC)cc3)nc3cc(Cl)c(Cl)cc32)cc1 [Compound 10d]
Result: 66.8

Q: Query: inhibition at 10 µM; subject: COc1ccc(-c2nc3cc(Cl)c(Cl)cc3n2CC(=O)NN=Cc2ccc(OC)c(O)c2)cc1 [Compound 10k]
Result: 50

====

# System: NCI/ADR-RES
# PROTOCOL: NCI 60 single concentration growth inhibition
# Type: cell-based, human
# REPORTED_CONDITIONS: Homo sapiens, Ovarian cancer, read-out: GI%
# maps each entry to its inhibition at 10 µM

Example results:
>  <COMPOUND>
COC(=O)COc1ccc(C=NNC(=O)Cn2c(-c3ccc(OC)cc3)nc3cc(Cl)c(Cl)cc32)cc1 [Compound 10h]

>  <TARGET_SYSTEM>
NCI/ADR-RES

>  <QUANTITY_KIND>
inhibition at 10 µM

>  <REPORTED_MEASUREMENT>
< 5%

$$$$
>  <COMPOUND>
COc1ccc(-c2nc3cc(Cl)c(Cl)cc3n2CC(=O)NN=Cc2ccc(OCC(=O)O)cc2)cc1 [Compound 10f]

>  <TARGET_SYSTEM>
NCI/ADR-RES

>  <QUANTITY_KIND>
inhibition at 10 µM

>  <REPORTED_MEASUREMENT>
< 5%

$$$$
>  <COMPOUND>
COc1ccc(-c2nc3cc(Cl)c(Cl)cc3n2CC(=O)NN=Cc2cccc(OCC(=O)O)c2)cc1 [Compound 10e]

>  <TARGET_SYSTEM>
NCI/ADR-RES

>  <QUANTITY_KIND>
inhibition at 10 µM

>  <REPORTED_MEASUREMENT>
< 5%

$$$$
>  <COMPOUND>
COc1ccc(C=NNC(=O)Cn2c(-c3ccc(OC)cc3)nc3cc(Cl)c(Cl)cc32)cc1 [Compound 10d]

>  <TARGET_SYSTEM>
NCI/ADR-RES

>  <QUANTITY_KIND>
inhibition at 10 µM

>  <REPORTED_MEASUREMENT>
36%

$$$$
>  <COMPOUND>
CCOC(=O)C(C)Oc1ccc(C=NNC(=O)Cn2c(-c3ccc(OC)cc3)nc3cc(Cl)c(Cl)cc32)cc1 (stereo not shown) [Compound 10j]

>  <TARGET_SYSTEM>
NCI/ADR-RES

>  <QUANTITY_KIND>
inhibition at 10 µM

>  <REPORTED_MEASUREMENT>
< 5%

$$$$
>  <COMPOUND>
COc1ccc(-c2nc3cc(Cl)c(Cl)cc3n2CC(=O)NN=Cc2ccc(O)c(OC)c2)cc1 [Compound 10l]

>  <TARGET_SYSTEM>
NCI/ADR-RES

>  <QUANTITY_KIND>
inhibition at 10 µM

>  <REPORTED_MEASUREMENT>
38.4%

$$$$
>  <COMPOUND>
COC(=O)COc1cc(C=NNC(=O)Cn2c(-c3ccc(OC)cc3)nc3cc(Cl)c(Cl)cc32)ccc1OC [Compound 10o]

>  <TARGET_SYSTEM>
NCI/ADR-RES

>  <QUANTITY_KIND>
inhibition at 10 µM

>  <REPORTED_MEASUREMENT>
11.1%

$$$$
>  <COMPOUND>
COC(=O)COc1ccc(C=NNC(=O)Cn2c(-c3ccc(OC)cc3)nc3cc(Cl)c(Cl)cc32)cc1OC [Compound 10p]

>  <TARGET_SYSTEM>
NCI/ADR-RES

>  <QUANTITY_KIND>
inhibition at 10 µM

>  <REPORTED_MEASUREMENT>
5.42%

$$$$

Q: Requested field: inhibition at 10 µM. Item: COC(=O)COc1cccc(C=NNC(=O)Cn2c(-c3ccc(OC)cc3)nc3cc(Cl)c(Cl)cc32)c1 [Compound 10g]
Result: < 5%
